Sourced from patent US20040253247A1

biological target: rabbit albumin (rabbit, UniProt P49065 25-608); experiment: phage ELISA
Sequence (P49065 25-608 limits assumed): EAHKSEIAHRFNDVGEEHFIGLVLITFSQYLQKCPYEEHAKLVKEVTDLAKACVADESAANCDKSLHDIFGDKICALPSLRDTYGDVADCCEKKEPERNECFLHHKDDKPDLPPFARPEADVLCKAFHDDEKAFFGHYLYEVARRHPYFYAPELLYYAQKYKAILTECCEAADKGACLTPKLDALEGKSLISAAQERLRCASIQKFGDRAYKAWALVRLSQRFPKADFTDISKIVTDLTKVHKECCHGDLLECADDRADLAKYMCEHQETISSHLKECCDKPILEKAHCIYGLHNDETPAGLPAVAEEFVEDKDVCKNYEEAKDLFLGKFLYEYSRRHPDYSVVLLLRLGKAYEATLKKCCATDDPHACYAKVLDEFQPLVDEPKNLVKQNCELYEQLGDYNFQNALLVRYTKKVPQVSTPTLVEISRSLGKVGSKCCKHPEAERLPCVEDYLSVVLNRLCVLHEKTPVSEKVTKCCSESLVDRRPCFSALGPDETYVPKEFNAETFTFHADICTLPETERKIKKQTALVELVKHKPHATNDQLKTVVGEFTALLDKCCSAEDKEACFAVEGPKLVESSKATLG
Where no end group is shown, it is not given here.
endpoint_name: binding result

[[record]]
binder = "EICYFPGICWM (phage clone, Library HC) [HC-H17]"
val = "no binding"

[[record]]
binder = "QRLMWEICLPLWGCLWGDGL (phage clone, Library RB) [RB-R5]"
val = "no binding"

[[record]]
binder = "GGEICYFPGICRVLP (phage clone, Library HBC) [HBC-H4]"
val = "no binding"

[[record]]
binder = "KVCYFPGICWM (not fully specified (bridges); cysteine pairing not given here, phage clone, Library HC) [HC-H5]"
val = "no binding"

[[record]]
binder = "DTCDDLVQLGLECWA (phage clone, Library RD) [RD-R11]"
val = "no binding"

[[record]]
binder = "MDDLCLPNWGCLWGD (phage clone, Library RBC) [RBC-R2]"
val = "no binding"

[[record]]
binder = "KLCYFPGICWS (phage clone, Library HC) [HC-H2]"
val = "no binding"

[[record]]
binder = "ALCYFPGICWM (phage clone, Library HC) [HC-H14]"
val = "no binding"

[[record]]
binder = "ELCYFPGICWP (phage clone, Library HC) [HC-H15]"
val = "no binding"

[[record]]
binder = "WEDLCLPDWGCLWED (phage clone, Library RBC) [RBC-R5]"
val = "no binding"

[[record]]
binder = "KSRMGDFCLPEWGCLWGDEL (phage clone, Library RB) [RB-R9]"
val = "no binding"

[[record]]
binder = "RDTVCYFPGICWMAS (phage clone, Library HBC) [HBC-H18]"
val = "no binding"

[[record]]
binder = "EVCYFPGICWE (phage clone, Library HC) [HC-H16]"
val = "no binding"

[[record]]
binder = "ELCYFPGICWM (phage clone, Library HC) [HC-H20]"
val = "no binding"

[[record]]
binder = "RTAESLVCYWPGICFAQSER (phage clone, Library HB) [HB-H18]"
val = "no binding"

